Kindly state % Protection against Edema for each of the entries shown.
Test system: carrageenan-induced edema
Experiment: Carrageenan-induced edema (rat paw test)
Type: in vivo
Details: dose 5.0 mg/kg oral, one hour before carrageenan; male albino rats, eight animals per group; paws excised four hours after drug administration
Answers are plain numbers, in %.

Guide cases for % Protection against Edema, answers given:
molecule | target.under.test | unit.annotation | % Protection against Edema
CC(C)C[C@H](NC(=O)c1cncc(C(=O)N[C@@H](CC(C)C)C(=O)NN)c1)C(=O)NN [Compound 4] | carrageenan-induced edema | % | 98.56
CC(C)C[C@H](NC(=O)c1cncc(C(=O)N[C@@H](CC(C)C)C(=O)O)c1)C(=O)O [Compound 5] | carrageenan-induced edema | % | 96.18

The record that follows has no % Protection against Edema shown yet.
What % Protection against Edema appears in the records for this molecule with carrageenan-induced edema? CC(C)C[C@H](NC(=O)c1cncc(C(=O)N[C@@H](CC(C)C)C(=O)N/N=C/c2ccc([N+](=O)[O-])cc2)c1)C(=O)N/N=C/c1ccc([N+](=O)[O-])cc1 [Compound 10d]
95.82
